# target.system: GST-Nv-NF-kB (Ser allele) (Nematostella vectensis, UniProt A7UNT2 2-411)
# Sequence: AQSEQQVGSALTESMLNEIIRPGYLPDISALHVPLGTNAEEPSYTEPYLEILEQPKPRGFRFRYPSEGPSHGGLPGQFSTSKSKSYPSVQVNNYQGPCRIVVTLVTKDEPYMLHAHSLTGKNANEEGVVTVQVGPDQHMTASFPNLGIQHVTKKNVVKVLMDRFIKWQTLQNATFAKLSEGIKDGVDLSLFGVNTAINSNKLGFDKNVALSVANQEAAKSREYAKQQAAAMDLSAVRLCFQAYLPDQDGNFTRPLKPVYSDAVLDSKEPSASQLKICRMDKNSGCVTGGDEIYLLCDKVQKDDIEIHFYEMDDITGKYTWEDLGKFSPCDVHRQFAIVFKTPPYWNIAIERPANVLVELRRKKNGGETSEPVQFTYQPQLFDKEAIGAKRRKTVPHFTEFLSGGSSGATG
# experiment.description: protein-binding microarray (PBM); PBM: ~300 nM protein, 6 mM HEPES pH 7.8, 80 mM KCl, 0.5 mM EDTA, 0.5 mM EGTA, 6% glycerol, 35 ng/ul poly-dIdC, 1% milk, 1 h, room temperature; high values mean tight binding
# run.parameters: dsDNA, one strand shown
measure: binding signal (z-score)
Numbers only, in z-score.

Worked cases, binding signal given:
CCGATTAACATCAGTATGGGAAATGATGTTAATCGGGTCTTGATTCGCTTGACGCTGCTG	2.22
CCGATTAACATCAAAACCCCCCCTGATGTTAATCGGGTCTTGATTCGCTTGACGCTGCTG	6.72
CCGATTAACATCAGGGAATTCCCTGATGTTAATCGGGTCTTGATTCGCTTGACGCTGCTG	11.4

Parameters: items (list). Returns: binding signal for each item.
1. CCGATTAACATCACAGATTCCCCTGATGTTAATCGGGTCTTGATTCGCTTGACGCTGCTG
2. CCGATTAACATCAGGGTTTTTAGTGATGTTAATCGGGTCTTGATTCGCTTGACGCTGCTG
3. CCGATTAACATCACGGGATTACCTGATGTTAATCGGGTCTTGATTCGCTTGACGCTGCTG
4. CCGATTAACATCAACCTTTCCCCTGATGTTAATCGGGTCTTGATTCGCTTGACGCTGCTG

1: 10.7; 2: 2.09; 3: 2.51; 4: 7.66

Parameters: items (list). Returns: binding signal for each item.
1. CCGATTAACATCAAATAAACCCCTGATGTTAATCGGGTCTTGATTCGCTTGACGCTGCTG
2. CCGATTAACATCAGGGACTCCCCTGATGTTAATCGGGTCTTGATTCGCTTGACGCTGCTG

[4.3, 7.65]

* * *

Exercise: state measured binding signal for each of the sequences provided.
# target.system: GST-Aq-NF-kB (Amphimedon queenslandica, UniProt A9Y5G7 2-389)
# Sequence: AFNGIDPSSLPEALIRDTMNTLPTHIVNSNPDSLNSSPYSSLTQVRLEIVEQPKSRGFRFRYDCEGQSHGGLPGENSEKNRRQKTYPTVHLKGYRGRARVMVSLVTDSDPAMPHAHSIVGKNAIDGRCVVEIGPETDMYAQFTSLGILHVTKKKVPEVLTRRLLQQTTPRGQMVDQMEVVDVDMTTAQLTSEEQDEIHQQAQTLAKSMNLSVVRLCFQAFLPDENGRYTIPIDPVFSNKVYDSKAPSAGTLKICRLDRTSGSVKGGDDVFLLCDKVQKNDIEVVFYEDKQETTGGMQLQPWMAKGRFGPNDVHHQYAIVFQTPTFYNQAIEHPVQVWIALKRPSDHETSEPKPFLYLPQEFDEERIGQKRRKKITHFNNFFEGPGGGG
# experiment.description: protein-binding microarray (PBM); PBM: ~300 nM protein, 6 mM HEPES pH 7.8, 80 mM KCl, 0.5 mM EDTA, 0.5 mM EGTA, 6% glycerol, 35 ng/ul poly-dIdC, 1% milk, 1 h, room temperature; high values mean tight binding
# run.parameters: dsDNA, one strand shown
Answers are plain numbers, in z-score.

Parameters: items (list). Returns: binding signal for each item.
1. CCGATTAACATCAATATTTCCCATGATGTTAATCGGGTCTTGATTCGCTTGACGCTGCTG
2. CCGATTAACATCAGGCAGTCCCCTGATGTTAATCGGGTCTTGATTCGCTTGACGCTGCTG

1: 3.82; 2: 5.52

Parameters: items (list). Returns: binding signal for each item.
1. CCGATTAACATCAAGTCCCCCCATGATGTTAATCGGGTCTTGATTCGCTTGACGCTGCTG
2. CCGATTAACATCACGGCTTTTCCTGATGTTAATCGGGTCTTGATTCGCTTGACGCTGCTG
3. CCGATTAACATCACTAAAATTCCTGATGTTAATCGGGTCTTGATTCGCTTGACGCTGCTG

1: 4.39; 2: 1.72; 3: 1.03

Parameters: items (list). Returns: binding signal for each item.
1. CCGATTAACATCAGAATTCCCGCTGATGTTAATCGGGTCTTGATTCGCTTGACGCTGCTG
2. CCGATTAACATCAGGGAAGTACCTGATGTTAATCGGGTCTTGATTCGCTTGACGCTGCTG
3. CCGATTAACATCAGGATTTCCCATGATGTTAATCGGGTCTTGATTCGCTTGACGCTGCTG
4. CCGATTAACATCACGGGGATCCCTGATGTTAATCGGGTCTTGATTCGCTTGACGCTGCTG

1. 3.98
2. 7.45
3. 5.27
4. 5.88

* * *

# target.system: GST-Dm-Relish (Drosophila melanogaster, UniProt Q94527 99-473)
# Sequence: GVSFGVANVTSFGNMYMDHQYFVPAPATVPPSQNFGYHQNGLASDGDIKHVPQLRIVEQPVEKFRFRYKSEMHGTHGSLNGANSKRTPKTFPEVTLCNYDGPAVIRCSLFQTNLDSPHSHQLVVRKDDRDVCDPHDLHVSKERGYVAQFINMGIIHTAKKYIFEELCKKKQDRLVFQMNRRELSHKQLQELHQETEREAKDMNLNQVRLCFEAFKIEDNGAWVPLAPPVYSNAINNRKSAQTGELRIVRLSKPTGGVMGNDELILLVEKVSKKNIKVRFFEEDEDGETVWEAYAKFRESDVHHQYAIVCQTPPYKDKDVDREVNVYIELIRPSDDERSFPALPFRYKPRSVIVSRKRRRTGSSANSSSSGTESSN
# experiment.description: protein-binding microarray (PBM); PBM: ~300 nM protein, 6 mM HEPES pH 7.8, 80 mM KCl, 0.5 mM EDTA, 0.5 mM EGTA, 6% glycerol, 35 ng/ul poly-dIdC, 1% milk, 1 h, room temperature; Ap Aiptasia and Nv Nematostella (sea anemones) / Co Capsaspora / Aq Amphimedon (sponge) / Dm Drosophila / Hu human; RHD is the Rel homology domain; high values mean tight binding
# run.parameters: dsDNA, one strand shown
measure: binding signal (z-score)
Answers are plain numbers, in z-score.

CCGATTAACATCAGGAATCCCACTGATGTTAATCGGGTCTTGATTCGCTTGACGCTGCTG	8.1
CCGATTAACATCACTTTTTTCCCTGATGTTAATCGGGTCTTGATTCGCTTGACGCTGCTG	2.28
CCGATTAACATCAGGGGCAACCCTGATGTTAATCGGGTCTTGATTCGCTTGACGCTGCTG	3.06

Parameters: items (list). Returns: binding signal for each item.
1. CCGATTAACATCACCCCGTCCCCTGATGTTAATCGGGTCTTGATTCGCTTGACGCTGCTG
2. CCGATTAACATCAAATTCCCCCATGATGTTAATCGGGTCTTGATTCGCTTGACGCTGCTG
3. CCGATTAACATCAGTACTTCCCATGATGTTAATCGGGTCTTGATTCGCTTGACGCTGCTG
4. CCGATTAACATCAACCATTCCCCTGATGTTAATCGGGTCTTGATTCGCTTGACGCTGCTG

[2.65, 7.71, 9.09, 1.96]

Parameters: items (list). Returns: binding signal for each item.
1. CCGATTAACATCACAACCCCCCCTGATGTTAATCGGGTCTTGATTCGCTTGACGCTGCTG
2. CCGATTAACATCACCCCCCCTGATGATGTTAATCGGGTCTTGATTCGCTTGACGCTGCTG
3. CCGATTAACATCACATTATCCCCTGATGTTAATCGGGTCTTGATTCGCTTGACGCTGCTG
4. CCGATTAACATCAGGGGTAAAACTGATGTTAATCGGGTCTTGATTCGCTTGACGCTGCTG

1. 6.16
2. 4.63
3. 2.4
4. 1.85

Parameters: items (list). Returns: binding signal for each item.
1. CCGATTAACATCACGGTAATCCCTGATGTTAATCGGGTCTTGATTCGCTTGACGCTGCTG
2. CCGATTAACATCAGGGGATGGGATGATGTTAATCGGGTCTTGATTCGCTTGACGCTGCTG
3. CCGATTAACATCACGGAAAGTCCTGATGTTAATCGGGTCTTGATTCGCTTGACGCTGCTG

1. 5.6
2. 1.4
3. 3.12

Parameters: items (list). Returns: binding signal for each item.
1. CCGATTAACATCAAGAATTCCCCTGATGTTAATCGGGTCTTGATTCGCTTGACGCTGCTG
2. CCGATTAACATCAGCGGAATTCCTGATGTTAATCGGGTCTTGATTCGCTTGACGCTGCTG
3. CCGATTAACATCAGGGGGAAGAATGATGTTAATCGGGTCTTGATTCGCTTGACGCTGCTG
4. CCGATTAACATCATTTCCCAAAATGATGTTAATCGGGTCTTGATTCGCTTGACGCTGCTG

[8.81, 2.27, 4.78, 1.36]
